Source listed as ChEMBL document CHEMBL4177580.

# assay.system: 5-hydroxytryptamine receptor 2A (Rattus norvegicus, UniProt P14842)
# Sequence (P14842 whole entry): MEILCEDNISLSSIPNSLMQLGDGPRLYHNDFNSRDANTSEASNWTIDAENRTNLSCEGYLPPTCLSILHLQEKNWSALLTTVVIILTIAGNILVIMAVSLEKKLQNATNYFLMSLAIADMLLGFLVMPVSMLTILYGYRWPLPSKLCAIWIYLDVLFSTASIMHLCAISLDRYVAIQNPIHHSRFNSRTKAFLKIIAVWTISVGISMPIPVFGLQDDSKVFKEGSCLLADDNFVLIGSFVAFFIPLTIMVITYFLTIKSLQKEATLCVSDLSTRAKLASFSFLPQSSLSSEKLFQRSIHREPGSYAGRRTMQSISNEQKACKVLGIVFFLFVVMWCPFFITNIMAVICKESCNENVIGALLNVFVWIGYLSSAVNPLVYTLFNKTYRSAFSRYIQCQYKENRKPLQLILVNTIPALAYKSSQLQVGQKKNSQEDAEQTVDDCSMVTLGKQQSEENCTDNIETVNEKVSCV
# procedure.summary: Antagonist activity at 5-HT2A receptor in Sprague-Dawley rat ielum assessed as reduction in 5-HT-evoked contraction
# Format: functional
# test.conditions: read-out: EC50
Reported pEC50 is given for each of the following compounds.
The value called pEC50 is obtained by taking minus log10 of the concentration in mol/L.

Some solved cases for reference:
O=C(NCCN1CCN(c2cccc(C(F)(F)F)c2)CC1)c1ccccn1 = 6.79
COc1ccccc1N1CCN(CCNC(=O)c2ccccn2)CC1 = 5.37
O=C(NCCCN1CCN(C(=O)c2ccco2)CC1)c1ccccn1 = 6.11
O=C(NCCCN1CCN(c2ccc(Cl)c(Cl)c2)CC1)c1ccccn1 = 6.11
O=C(NCCCN1CCN(C(c2ccc(F)cc2)c2ccc(F)cc2)CC1)c1ccccn1 = 5.69
O=C(NCCCN1CCN(c2ncccn2)CC1)c1ccccn1 = 6.08

Now for a further compound.
The compound `O=C(NCCCN1CCN(Cc2ccc3c(c2)OCO3)CC1)c1ccccn1` , tested on 5-hydroxytryptamine receptor 2A (Rattus norvegicus, UniProt P14842), showed pEC50 of 5.19

###

# assay.system: 5-hydroxytryptamine receptor 1A (Rattus norvegicus, UniProt P19327)
# Sequence (P19327 whole entry): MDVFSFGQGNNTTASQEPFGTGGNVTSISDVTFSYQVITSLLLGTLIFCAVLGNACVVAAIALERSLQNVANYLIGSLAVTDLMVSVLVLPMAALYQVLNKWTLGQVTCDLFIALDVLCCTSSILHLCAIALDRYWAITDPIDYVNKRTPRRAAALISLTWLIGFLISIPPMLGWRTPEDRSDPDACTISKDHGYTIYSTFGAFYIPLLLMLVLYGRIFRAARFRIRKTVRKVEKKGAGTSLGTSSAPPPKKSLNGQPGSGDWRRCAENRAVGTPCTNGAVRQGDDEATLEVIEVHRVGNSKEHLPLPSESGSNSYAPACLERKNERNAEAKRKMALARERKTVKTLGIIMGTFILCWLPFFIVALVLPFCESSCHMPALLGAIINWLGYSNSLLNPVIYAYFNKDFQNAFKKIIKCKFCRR
pKi: −log10 of the molar value.
outcome.measure: pKi

Would you please look over these solved cases?
O=C(NCCN1CCN(C(c2ccc(F)cc2)c2ccc(F)cc2)CC1)c1ccccn1 = < 5.00
O=C(NCCN1CCN(C(=O)c2ccco2)CC1)c1ccccn1 = < 5.00

Moving on to the next compound.
Known value: 5-hydroxytryptamine receptor 1A (Rattus norvegicus, UniProt P19327) pKi of the compound `COc1ccc(N2CCN(CCCNC(=O)c3ccccn3)CC2)cc1` equals < 5.00
